Property Label: Ki (nM)
Could you give me the number in nM? Just the number is fine.

Lab note: need Ki with UniProtKB P34972 for entry CC(C)Cn1cc(C(C)(C)C)s/c1=N\C(=O)c1cc(Cl)ccc1OC1CC1 , please look it up.
Sequence (P34972 whole entry): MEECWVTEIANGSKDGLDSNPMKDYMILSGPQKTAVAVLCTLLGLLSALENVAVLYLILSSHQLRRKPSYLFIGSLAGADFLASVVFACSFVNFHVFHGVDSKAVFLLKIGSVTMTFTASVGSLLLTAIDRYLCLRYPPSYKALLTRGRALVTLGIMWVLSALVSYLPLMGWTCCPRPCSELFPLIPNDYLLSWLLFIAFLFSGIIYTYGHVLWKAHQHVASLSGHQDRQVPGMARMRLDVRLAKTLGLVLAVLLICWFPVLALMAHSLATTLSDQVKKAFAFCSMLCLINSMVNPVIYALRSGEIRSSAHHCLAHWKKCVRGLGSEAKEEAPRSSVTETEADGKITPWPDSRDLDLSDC
9.9

Lab note: need Ki with UniProtKB P34972 for entry CC(C)Cn1cc(C(C)(C)C)s/c1=N\C(=O)c1cc(C(F)(F)F)ccc1OCc1ccco1 , please look it up.
7.4

Lab note: need Ki with UniProtKB P34972 for entry C#CCCn1cc(C(C)(C)C)s/c1=N\C(=O)c1cc(C(F)(F)F)ccc1ONC(C)(C)C , please look it up.
15

* * *

biological target: rat CB2 receptors (Rattus norvegicus (Rat), UniProt Q9QZN9); experiment: rat CB2 cyclase functional assay (HitHunter cAMP); conditions: HEK cells, forskolin 18 μM
Sequence (Q9QZN9 whole entry): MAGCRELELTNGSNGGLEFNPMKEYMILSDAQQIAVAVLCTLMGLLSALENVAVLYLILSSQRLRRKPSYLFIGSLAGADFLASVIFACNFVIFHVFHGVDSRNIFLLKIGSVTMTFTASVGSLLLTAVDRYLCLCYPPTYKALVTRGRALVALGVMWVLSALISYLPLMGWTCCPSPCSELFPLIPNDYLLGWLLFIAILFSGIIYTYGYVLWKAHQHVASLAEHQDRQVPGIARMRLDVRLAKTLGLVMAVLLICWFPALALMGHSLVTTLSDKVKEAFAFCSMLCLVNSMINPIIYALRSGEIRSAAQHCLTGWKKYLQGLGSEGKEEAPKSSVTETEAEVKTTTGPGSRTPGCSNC
Property Label: pEC50
Scale for pEC50: -log10 of concentration given in mol/L; no unit attached.

Tell me the measured pEC50 of CCCCn1/c(=N/C(=O)c2cc(C(F)(F)F)ccc2OC[C@H](C)O)sc2ccncc21 [Example 29] , please.
8.85

Tell me the measured pEC50 of CCCCn1/c(=N/C(=O)c2cc(C(F)(F)F)ccc2OCC(C)(C)O)sc2ccncc21 [Example 21] , please.
9.24

Tell me the measured pEC50 of CC(C)Cn1cc(C(C)(C)C)s/c1=N\C(=O)c1cc(C(F)(F)F)ccc1OCCN1CCCC1 [Example 7] , please.
8.89

Tell me the measured pEC50 of CC(C)Cn1cc(C(C)(C)C)s/c1=N\C(=O)c1cc(C(F)(F)F)ccc1OC[C@@H]1CCCN1C [Example 5] , please.
8.92

* * *

biological target: UniProtKB Q9QZN9; assay: rat CB2 radioligand binding assay ([3H]CP 55,940 competition); details: HEK293 membranes, 0.5 nM [3H]CP 55,940
Property Label: Ki (µM)
Could you give me the number in µM? Just the number is fine.

Lab note: need Ki with UniProtKB Q9QZN9 for entry CCCCn1cc(C(C)(C)C)s/c1=N\C(=O)c1cc(C(F)(F)F)ccc1OC[C@@H]1CCCN1C [Example 9] , please look it up.
0.0077

Lab note: need Ki with UniProtKB Q9QZN9 for entry CCCCn1/c(=N/C(=O)c2cc(C(F)(F)F)ccc2OC[C@@H]2CCCN2C)sc2ccncc21 [Example 33] , please look it up.
0.035

Lab note: need Ki with UniProtKB Q9QZN9 for entry CC(C)(O)COc1ccc(C(F)(F)F)cc1C(=O)/N=c1\sc2ccncc2n1CCCC(F)(F)F [Example 27] , please look it up.
0.01

Lab note: need Ki with UniProtKB Q9QZN9 for entry CCCCn1/c(=N/C(=O)c2cc(C(F)(F)F)ccc2OC[C@H](C)O)sc2ncccc21 [Example 36] , please look it up.
0.0021

Lab note: need Ki with UniProtKB Q9QZN9 for entry CCCCn1/c(=N/C(=O)c2cc(C(F)(F)F)ccc2ONC(C)(C)C)sc2ccncc21 [Example 22] , please look it up.
0.073

Lab note: need Ki with UniProtKB Q9QZN9 for entry CCCCn1cc(C(C)(C)C)s/c1=N\C(=O)c1cc(C(F)(F)F)ccc1ONC(C)(C)C [Example 23] , please look it up.
0.00095

Lab note: need Ki with UniProtKB Q9QZN9 for entry CC(C)Cn1cc(C(C)(C)C)s/c1=N\C(=O)c1cc(C(F)(F)F)ccc1OC[C@@H]1CCN1 [Example 14] , please look it up.
0.013

Lab note: need Ki with UniProtKB Q9QZN9 for entry CCCCn1cc(C(C)(C)C)s/c1=N\C(=O)c1cc(C(F)(F)F)ccc1NNC(=O)c1cccnc1 [Example 37] , please look it up.
0.00077

Lab note: need Ki with UniProtKB Q9QZN9 for entry CC(=O)OCCOc1ccc(C(F)(F)F)cc1C(=O)/N=c1\sc(C(C)(C)C)cn1CC(C)C [Example 18] , please look it up.
0.0014

Lab note: need Ki with UniProtKB Q9QZN9 for entry CCCCn1/c(=N/C(=O)c2cc(C(F)(F)F)ccc2OCCNC(C)=O)sc2ccncc21 [Example 25] , please look it up.
0.0036

Lab note: need Ki with UniProtKB Q9QZN9 for entry CN1CCC[C@H]1COc1ccc(C(F)(F)F)cc1C(=O)/N=c1\sc(C(C)(C)C)cn1CC1(O)CCC1 [Example 11] , please look it up.
0.032

Lab note: need Ki with UniProtKB Q9QZN9 for entry CCCCn1/c(=N/C(=O)c2cc(C(F)(F)F)ccc2OC[C@@H](C)O)sc2ccncc21 [Example 28] , please look it up.
0.063

Lab note: need Ki with UniProtKB Q9QZN9 for entry CCCCn1c(C(=O)OC)c(C(C)C)s/c1=N\C(=O)c1cc(C(F)(F)F)ccc1ONC(C)(C)C [Example 34] , please look it up.
0.048

Lab note: need Ki with UniProtKB Q9QZN9 for entry CC(C)Cn1cc(C(C)(C)C)s/c1=N\C(=O)c1ccccc1OC[C@@H]1CCCN1C [Example 10] , please look it up.
0.243

Lab note: need Ki with UniProtKB Q9QZN9 for entry CC(C)Cn1cc(C(C)(C)C)s/c1=N\C(=O)c1cc(C#N)ccc1OC1CCC1 [Example 16] , please look it up.
0.0052

Lab note: need Ki with UniProtKB Q9QZN9 for entry CC(C)Cn1cc(C(C)(C)C)s/c1=N\C(=O)c1cc(C(F)(F)F)ccc1OC[C@@H]1CCN1C [Example 12] , please look it up.
0.026

Lab note: need Ki with UniProtKB Q9QZN9 for entry CC(C)Cn1cc(C(C)(C)C)s/c1=N\C(=O)c1cc(C(F)(F)F)ccc1OCc1ccco1 [Example 3] , please look it up.
0.0087

Lab note: need Ki with UniProtKB Q9QZN9 for entry CC(C)Cn1cc(C(C)(C)C)s/c1=N\C(=O)c1cc(Cl)ccc1OCC1CCO1 (stereo not shown) [Example 4] , please look it up.
0.0052

Lab note: need Ki with UniProtKB Q9QZN9 for entry CC(C)Cn1cc(C(C)(C)C)s/c1=N\C(=O)c1cc(C(F)(F)F)ccc1O[C@H]1CCN(C)C1 [Example 13] , please look it up.
0.081
